Known cytotoxicity at 70.5 h of a selection of molecules
Assay: Human HepG2 cell viability assay in 384 well format
Type: toxicity, cell-based
Set-up: dose 125 nL, time 70.5 hour; concentration not given beside the values
Details: HepG2 cells, read-out: Inhibition
Response body: numeric value in %, unit text excluded.

Below: 2 molecules and their reported cytotoxicity at 70.5 h.
CC(=O)N1N=C(c2ccccc2)OC1C(=O)NCC(=O)OC(C)(C)C (stereo unspecified)	-2.16
Cc1cc(CN2CCN(Cc3ccccc3F)CC2)no1	6.67

# input molecule: "O=C(CCc1ncc(-c2ccc(F)cc2)o1)NCCN1CCOCC1" ; wanted: its cytotoxicity at 70.5 h
-3.91

What do you get for "Cc1cc(C)n(CCCN(C)c2cc(N(C)C)ncn2)n1" ?
-7.08

What do you get for "COc1ccc(NC(=O)Cn2nc(C)c(C)cc2=O)c(OC)c1" ?
-8.67

What do you get for CC1c2ncc(Cn3cncn3)n2CCN1C(=O)Cc1cccs1 (stereo unspecified) ?
-6.55

What do you get for CC(=O)N1CCN(Cc2ccc(F)c(C(F)(F)F)c2)CC(O)C1 (stereo unspecified) ?
-8.55

What do you get for Cc1cnc(CN2CCN(c3ccc4nncn4n3)C(C)C2)cn1 (stereo unspecified) ?
-15.4

What do you get for "O=C(CN1CCc2onc(-c3ccccc3F)c2C1)NC1CC1" ?
-9.25

What do you get for CN(CC(=O)N(C)C(c1cccnc1)c1ccc(F)c(F)c1)C1CC1 (stereo unspecified) ?
22.6

What do you get for CCOCC1CN(Cc2ccc3c(c2)OCO3)Cc2ncn(C)c21 (stereo unspecified) ?
-10.5
